system: PPARg homodimer (NR concentration 180 nM); assay: PBM binding z-score (relative to random genomic background probes); higher = stronger binding; sequences stand for … in GC…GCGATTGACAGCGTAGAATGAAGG
Reported PBM binding z-score values follow for various sequences
Kindly provide the number alone.

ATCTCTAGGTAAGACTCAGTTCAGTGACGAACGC 0.854
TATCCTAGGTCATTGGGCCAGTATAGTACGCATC 2.35

Bench note: what PBM binding z-score did `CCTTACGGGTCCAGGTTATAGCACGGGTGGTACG` show?
-0.0235

Bench note: what PBM binding z-score did `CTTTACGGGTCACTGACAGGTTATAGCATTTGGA` show?
2.33

Bench note: what PBM binding z-score did `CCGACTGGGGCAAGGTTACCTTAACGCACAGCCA` show?
0.376

Bench note: what PBM binding z-score did `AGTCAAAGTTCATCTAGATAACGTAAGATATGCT` show?
2.62

Bench note: what PBM binding z-score did `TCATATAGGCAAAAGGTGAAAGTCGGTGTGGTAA` show?
1.39

Bench note: what PBM binding z-score did `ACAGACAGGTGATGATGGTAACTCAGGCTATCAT` show?
0.0138

Bench note: what PBM binding z-score did `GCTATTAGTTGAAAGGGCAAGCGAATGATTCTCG` show?
1.28

Bench note: what PBM binding z-score did `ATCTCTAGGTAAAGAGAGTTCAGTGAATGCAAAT` show?
0.502

###

tested on: RARg:RXRa (NR concentration 270 nM, RXRa partner concentration 90 nM); test: PBM binding z-score (relative to random genomic background probes); higher = stronger binding; sequences stand for … in GC…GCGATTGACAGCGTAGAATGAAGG
Please map values of PBM binding z-score to classes as shown: low bin: < 0.5; mid bin: ≥ 0.5 and < 2; high bin: ≥ 2

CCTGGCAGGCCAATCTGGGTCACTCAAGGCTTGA mid bin
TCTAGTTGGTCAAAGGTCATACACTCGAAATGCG high bin
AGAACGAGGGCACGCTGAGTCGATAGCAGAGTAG mid bin
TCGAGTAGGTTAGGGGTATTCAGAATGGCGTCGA low bin
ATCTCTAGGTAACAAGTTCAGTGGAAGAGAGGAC mid bin

Then this sequence:
Which category does the recorded PBM binding z-score put `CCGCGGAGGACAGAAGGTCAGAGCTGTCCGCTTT` in?
high bin

###

system: PPARg:RXRa 30nM:10nM, anti-RXR (NR concentration 30 nM, RXRa partner concentration 10 nM); test: PBM binding z-score (relative to random genomic background probes); higher = stronger binding; sequences stand for … in GC…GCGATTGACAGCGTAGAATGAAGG
Classification field: enter rule met for PBM binding z-score values not below 2, rule not met for values below it.

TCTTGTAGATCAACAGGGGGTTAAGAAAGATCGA rule met
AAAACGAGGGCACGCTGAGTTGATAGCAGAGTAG rule not met

Dear colleague, could you confirm whether `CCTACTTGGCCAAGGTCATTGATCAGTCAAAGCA` has PBM binding z-score at or above 2?
rule not met

Dear colleague, could you confirm whether `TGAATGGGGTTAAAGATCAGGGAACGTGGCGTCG` has PBM binding z-score at or above 2?
rule met

Dear colleague, could you confirm whether `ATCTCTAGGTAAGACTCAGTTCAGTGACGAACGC` has PBM binding z-score at or above 2?
rule not met

Dear colleague, could you confirm whether `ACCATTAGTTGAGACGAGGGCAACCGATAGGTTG` has PBM binding z-score at or above 2?
rule not met

Dear colleague, could you confirm whether `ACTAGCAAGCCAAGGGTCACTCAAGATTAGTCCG` has PBM binding z-score at or above 2?
rule met

Dear colleague, could you confirm whether `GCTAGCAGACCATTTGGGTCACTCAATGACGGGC` has PBM binding z-score at or above 2?
rule not met

Dear colleague, could you confirm whether `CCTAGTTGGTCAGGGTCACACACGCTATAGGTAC` has PBM binding z-score at or above 2?
rule not met

Dear colleague, could you confirm whether `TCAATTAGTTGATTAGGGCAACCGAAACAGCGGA` has PBM binding z-score at or above 2?
rule met

Dear colleague, could you confirm whether `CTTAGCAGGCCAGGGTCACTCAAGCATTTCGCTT` has PBM binding z-score at or above 2?
rule not met

Dear colleague, could you confirm whether `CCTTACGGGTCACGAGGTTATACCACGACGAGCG` has PBM binding z-score at or above 2?
rule met

###

system: PPARg:RXRa 90nM:30nM, anti-RXR (NR concentration 90 nM, RXRa partner concentration 30 nM); test: PBM binding z-score (relative to random genomic background probes); higher = stronger binding; sequences stand for … in GC…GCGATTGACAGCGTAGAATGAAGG
Please map values of PBM binding z-score to classes as shown: bucket A: < 1; bucket B: ≥ 1 and < 4; bucket C: ≥ 4

Which category does the recorded PBM binding z-score put `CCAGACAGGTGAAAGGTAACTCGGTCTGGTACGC` in?
bucket C

Which category does the recorded PBM binding z-score put `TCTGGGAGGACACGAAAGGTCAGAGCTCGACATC` in?
bucket B

Which category does the recorded PBM binding z-score put `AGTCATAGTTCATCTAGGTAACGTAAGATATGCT` in?
bucket B

Which category does the recorded PBM binding z-score put `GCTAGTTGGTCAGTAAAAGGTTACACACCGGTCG` in?
bucket B

Which category does the recorded PBM binding z-score put `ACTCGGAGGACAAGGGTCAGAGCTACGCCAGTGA` in?
bucket C

Which category does the recorded PBM binding z-score put `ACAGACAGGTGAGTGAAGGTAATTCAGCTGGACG` in?
bucket A

Which category does the recorded PBM binding z-score put `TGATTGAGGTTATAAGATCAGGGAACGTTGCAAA` in?
bucket B

Which category does the recorded PBM binding z-score put `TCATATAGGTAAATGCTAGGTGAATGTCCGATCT` in?
bucket B

Which category does the recorded PBM binding z-score put `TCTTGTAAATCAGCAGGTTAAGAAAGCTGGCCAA` in?
bucket B

Which category does the recorded PBM binding z-score put `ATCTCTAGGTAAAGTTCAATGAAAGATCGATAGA` in?
bucket C

Which category does the recorded PBM binding z-score put `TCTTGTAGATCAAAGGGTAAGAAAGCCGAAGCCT` in?
bucket C

Which category does the recorded PBM binding z-score put `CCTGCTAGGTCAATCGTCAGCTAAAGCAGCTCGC` in?
bucket B

Which category does the recorded PBM binding z-score put `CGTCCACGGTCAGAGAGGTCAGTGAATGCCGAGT` in?
bucket A

Which category does the recorded PBM binding z-score put `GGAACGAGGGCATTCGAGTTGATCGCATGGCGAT` in?
bucket A

Which category does the recorded PBM binding z-score put `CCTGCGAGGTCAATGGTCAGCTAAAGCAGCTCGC` in?
bucket C

Which category does the recorded PBM binding z-score put `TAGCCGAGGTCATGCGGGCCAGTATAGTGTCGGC` in?
bucket C

Which category does the recorded PBM binding z-score put `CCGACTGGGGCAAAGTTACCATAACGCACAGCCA` in?
bucket C

Which category does the recorded PBM binding z-score put `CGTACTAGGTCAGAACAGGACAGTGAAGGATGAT` in?
bucket B

###

tested on: PXR homodimer (NR concentration 270 nM); experiment: PBM binding z-score (relative to random genomic background probes); higher = stronger binding; sequences stand for … in GC…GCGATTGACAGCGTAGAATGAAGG
Reported PBM binding z-score values follow for various sequences

Recorded PBM binding z-score, per entry:
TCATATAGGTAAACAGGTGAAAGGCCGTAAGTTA 0.656
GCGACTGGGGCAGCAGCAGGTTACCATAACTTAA -0.939
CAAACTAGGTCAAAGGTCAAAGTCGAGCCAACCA 2.02
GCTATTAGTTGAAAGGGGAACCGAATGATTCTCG 0.237
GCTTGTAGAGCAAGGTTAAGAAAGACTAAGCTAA -0.546
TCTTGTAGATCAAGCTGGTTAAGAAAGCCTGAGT 0.0966
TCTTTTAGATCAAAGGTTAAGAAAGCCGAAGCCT 0.154
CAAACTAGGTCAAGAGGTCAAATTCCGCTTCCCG 2.4
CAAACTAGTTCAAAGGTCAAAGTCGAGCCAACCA 3.08
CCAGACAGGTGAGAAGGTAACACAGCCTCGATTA 0.73

Bench note: what PBM binding z-score did `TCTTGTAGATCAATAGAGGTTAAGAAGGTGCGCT` show?
-0.00143

Bench note: what PBM binding z-score did `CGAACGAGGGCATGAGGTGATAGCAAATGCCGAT` show?
-0.352

###

Reported PBM binding z-score values follow for various sequences
test system: PPARg DBDmut IVT, anti-PPARg (DBD mutation: PPARg1 K132A/R137A, NR concentration 270 nM); test: PBM binding z-score (relative to random genomic background probes); higher = stronger binding; sequences stand for … in GC…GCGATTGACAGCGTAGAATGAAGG
Kindly provide the number alone.

Recorded PBM binding z-score, per entry:
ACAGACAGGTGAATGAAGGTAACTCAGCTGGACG -0.518
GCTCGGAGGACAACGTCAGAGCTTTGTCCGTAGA -1.23
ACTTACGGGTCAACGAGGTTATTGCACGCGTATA 2.63
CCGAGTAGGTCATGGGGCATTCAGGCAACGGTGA -0.486

Bench note: what PBM binding z-score did `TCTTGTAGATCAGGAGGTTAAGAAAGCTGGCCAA` show?
-0.244

Bench note: what PBM binding z-score did `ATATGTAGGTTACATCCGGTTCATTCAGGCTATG` show?
2.01

Bench note: what PBM binding z-score did `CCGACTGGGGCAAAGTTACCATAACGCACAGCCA` show?
-0.589

Bench note: what PBM binding z-score did `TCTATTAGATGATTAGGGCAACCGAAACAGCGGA` show?
0.561

Bench note: what PBM binding z-score did `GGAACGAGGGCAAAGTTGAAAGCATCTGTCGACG` show?
-0.356

Bench note: what PBM binding z-score did `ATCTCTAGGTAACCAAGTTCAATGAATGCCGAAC` show?
1.22

Bench note: what PBM binding z-score did `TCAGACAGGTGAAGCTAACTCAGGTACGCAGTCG` show?
-0.303

Bench note: what PBM binding z-score did `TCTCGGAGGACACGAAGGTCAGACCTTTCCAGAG` show?
-0.138
